Where do these numbers come from? They come from patent US20210395394A1.

Task for the reader: assign each of the following binders its reported Kd.
# experimental system: Pan-species-specific antigen Plasmodium Lactate DeHydrogenase (Pan-PLDH) protein
# protocol text: indirect ELISA at four coating concentrations, KD calculated from half-maximal OD
Answers are plain numbers, in nM.

Count: 2. Required value per item: Kd.
1. WT 1-6 (antibody, mouse IgG2b, kappa, V domains shown) VH: QVQLQQPGAELVRPGASVKLSCKASGTSFTNYFMNWVKQRPGQGLEWIGMINPSDSETRLNQKFKDKATLTVDKSSSTAYMQLSSLTAEDSAVYYCARSGDFYTYYWDYWGQGTTLTVSS VL: DIQLTQSPASLSASVGETVTITCRGSGNIHNYIAWYQQKQGKSPQLLVYNAKTVADGVPSRFSGSGSGTQYSLKINSLQPEDFGSYYCQSFWSSYTFGGGTKLEIKR
2. Mutation 1-11 (antibody, mouse IgG2b, kappa, V domains shown) VH: QVQLQQPGAELVRPGASVKLSCKASGYSFTNYWMNWVKQRPGQGLEWIGMIHPSESETRVNQKFKDKATLTVDKSSSTAYMQLSSLTAEDSAVYYCARSGEFYTTYFDYWGQGTTLTVSS VL: DIQLTQSPASLSASVGETVTITCRGSGNLHNYLAWYQQKQGKSPQLLVYNARTIADGVPSRFSGSGSGTQYSLKINSLQPEDFGSYYCQTFWSTYTFGGGTKLEIKR

Reply text:
1.56
0.465
